# Plant response rating, Bromegrass, Downy per entry
- Tested on: downy bromegrass (Bromus tectorum)
- procedure_details: Test B pre-/postemergence plant response
- Type: in vivo
- test_context: Postemergence, 125 g ai/ha; visual rating after 13 to 15 days, scale 0 (no effect) to 100 (complete control)

// query API: value(readout= Plant response rating, Bromegrass, Downy, system= downy bromegrass (Bromus tectorum), query= Cc1c(Cl)cccc1-n1c(-c2ccccc2)ncc(C(=O)C2=C(O)CCCC2=O)c1=O )
// result 70

// query Given the entry CCCCc1ncc(C(=O)C2=C(O)CCCC2=O)c(=O)n1-c1ccc(C)cc1 , what Plant response rating, Bromegrass, Downy was observed with downy bromegrass (Bromus tectorum)?
// result 0

---
// query Request body: readout Plant response rating, Bromegrass, Downy, system downy bromegrass (Bromus tectorum), query CC(C)CC(=O)OC1=C(C(=O)c2cnc(-c3ccccc3)n(-c3ccccc3)c2=O)C(=O)CCC1 . Return the value.
// result 45

// query Write down the reported Plant response rating, Bromegrass, Downy of Cn1c(-c2ccccc2)ncc(C(=O)C2=C(O)CCCC2=O)c1=O , test system: downy bromegrass (Bromus tectorum).
// result 0

// query Plant response rating, Bromegrass, Downy of CCCCc1ncc(C(=O)C2=C(O)CCCC2=O)c(=O)n1-c1cccc(C)c1 on downy bromegrass (Bromus tectorum)?
// result 20

// query Lab request: please report Plant response rating, Bromegrass, Downy under test system downy bromegrass (Bromus tectorum) for O=C1CCCC(O)=C1C(=O)c1cnc(-c2cccc(Cl)c2)n(-c2ccc(Cl)cc2)c1=O
// result 60

// query Missing value: Plant response rating, Bromegrass, Downy, downy bromegrass (Bromus tectorum), entry Cc1cccc(Cl)c1-n1c(-c2ccccc2)ncc(C(=O)C2=C(O)CCCC2=O)c1=O . Fill in?
// result 10

// query Request: Plant response rating, Bromegrass, Downy, test system downy bromegrass (Bromus tectorum), entry CCCCCn1c(-c2ccccc2)ncc(C(=O)C2=C(O)CCCC2=O)c1=O
// result 5
